B1: VH:VL chains; a variant is named by its letters at X, in order (parent)
chain 1: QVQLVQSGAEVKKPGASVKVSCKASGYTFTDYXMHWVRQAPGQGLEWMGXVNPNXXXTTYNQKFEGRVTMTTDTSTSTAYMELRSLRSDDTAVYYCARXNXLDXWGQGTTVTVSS
chain 2: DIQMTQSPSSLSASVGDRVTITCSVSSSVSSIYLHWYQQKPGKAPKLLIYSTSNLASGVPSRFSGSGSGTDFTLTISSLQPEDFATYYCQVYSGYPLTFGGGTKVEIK

- Variants of: B1
- method.summary: yeast display scFab, FACS + sequencing

{"variant.designation": "YKGGSSLD", "non-specific binding call": "binds"}
{"variant.designation": "STAEDDWV", "non-specific binding call": "no binding"}
{"variant.designation": "YRGRGYGS", "non-specific binding call": "binds"}
{"variant.designation": "AAARNFLF chain 1 V68I", "non-specific binding call": "binds"}
{"variant.designation": "DKTGDSAD", "non-specific binding call": "no binding"}
{"variant.designation": "DRGRSDVA", "non-specific binding call": "no binding"}
{"variant.designation": "FRGKGSGV", "non-specific binding call": "binds"}
{"variant.designation": "YAKRDAGD", "non-specific binding call": "no binding"}
{"variant.designation": "SAGRGFGF", "non-specific binding call": "binds"}
{"variant.designation": "VRRGSASD", "non-specific binding call": "binds"}
{"variant.designation": "YRGRGSVY", "non-specific binding call": "binds"}
{"variant.designation": "VRTEDDVF", "non-specific binding call": "no binding"}
{"variant.designation": "VATRGYLV", "non-specific binding call": "binds"}
{"variant.designation": "SARTDFWF", "non-specific binding call": "binds"}
{"variant.designation": "VRERGDLV", "non-specific binding call": "no binding"}
{"variant.designation": "FRGEGAVS", "non-specific binding call": "binds"}
{"variant.designation": "ARRGGSVD", "non-specific binding call": "binds"}
{"variant.designation": "DTGTGSWD", "non-specific binding call": "no binding"}
{"variant.designation": "VTKTGDAV", "non-specific binding call": "no binding"}
{"variant.designation": "VRERGVGV", "non-specific binding call": "binds"}
{"variant.designation": "YRTGGSGD", "non-specific binding call": "binds"}
{"variant.designation": "VRRGSSAD", "non-specific binding call": "binds"}
{"variant.designation": "VEGRGDGY", "non-specific binding call": "no binding"}
{"variant.designation": "VKAKDAGY", "non-specific binding call": "binds"}
{"variant.designation": "YRRGGSVD", "non-specific binding call": "binds"}
{"variant.designation": "VEGGGAAS", "non-specific binding call": "no binding"}
{"variant.designation": "ATGGAAGD", "non-specific binding call": "no binding"}
{"variant.designation": "YRTRDDVV", "non-specific binding call": "no binding"}
{"variant.designation": "FRRGSSVV", "non-specific binding call": "binds"}
{"variant.designation": "YTRKSSVD", "non-specific binding call": "binds"}
{"variant.designation": "VAGTGSLD", "non-specific binding call": "no binding"}
{"variant.designation": "DRRRGSGA", "non-specific binding call": "binds"}
{"variant.designation": "YRARGAGA", "non-specific binding call": "binds"}
{"variant.designation": "YRRRGSVS", "non-specific binding call": "binds"}
{"variant.designation": "VTTKSDAV", "non-specific binding call": "no binding"}
{"variant.designation": "YTGTSSLD", "non-specific binding call": "no binding"}
{"variant.designation": "FKGRGAVD", "non-specific binding call": "binds"}
{"variant.designation": "FATGSDGA", "non-specific binding call": "no binding"}
{"variant.designation": "ARRTDVAD", "non-specific binding call": "binds"}
{"variant.designation": "FRGRSYVD", "non-specific binding call": "binds"}
{"variant.designation": "SAAGGAAV chain 1 L45S", "non-specific binding call": "no binding"}
{"variant.designation": "FKTAGSAV chain 1 R67H", "non-specific binding call": "binds"}
{"variant.designation": "YKGKGAGF", "non-specific binding call": "binds"}
{"variant.designation": "DGGTNDGA", "non-specific binding call": "no binding"}
{"variant.designation": "SETTDAGV", "non-specific binding call": "no binding"}
{"variant.designation": "DATGGDVA", "non-specific binding call": "no binding"}
{"variant.designation": "SKGKGAVA", "non-specific binding call": "binds"}
{"variant.designation": "VRERGDGS", "non-specific binding call": "no binding"}
{"variant.designation": "VKKTGSGA", "non-specific binding call": "binds"}
{"variant.designation": "YKTGDSVD", "non-specific binding call": "no binding"}
{"variant.designation": "VTTKSFGV", "non-specific binding call": "no binding"}
{"variant.designation": "DARGGAAV", "non-specific binding call": "no binding"}
{"variant.designation": "YAEGDAAD", "non-specific binding call": "no binding"}
{"variant.designation": "FGKEDSVD", "non-specific binding call": "binds"}
{"variant.designation": "DTTKGDVA", "non-specific binding call": "no binding"}
{"variant.designation": "DATGGSSV", "non-specific binding call": "no binding"}
{"variant.designation": "VTGEDDVA", "non-specific binding call": "no binding"}
{"variant.designation": "FRAGDAGV", "non-specific binding call": "binds"}
{"variant.designation": "FRGGGDWD", "non-specific binding call": "no binding"}
{"variant.designation": "FRGADSGF chain 1 R98K", "non-specific binding call": "binds"}
{"variant.designation": "FGGENDGD", "non-specific binding call": "no binding"}
{"variant.designation": "ATGRADVY", "non-specific binding call": "no binding"}
{"variant.designation": "DAGGGDGA", "non-specific binding call": "no binding"}
{"variant.designation": "YTERNFGV", "non-specific binding call": "binds"}
{"variant.designation": "VTTKSDWV", "non-specific binding call": "no binding"}
{"variant.designation": "YRGGGDSV", "non-specific binding call": "no binding"}
{"variant.designation": "VRERGAGS", "non-specific binding call": "binds"}
{"variant.designation": "FAARSYGD", "non-specific binding call": "binds"}
{"variant.designation": "FRRGGAWD", "non-specific binding call": "binds"}
{"variant.designation": "VEEEGDGV", "non-specific binding call": "no binding"}
{"variant.designation": "YKGRGVGY", "non-specific binding call": "binds"}
{"variant.designation": "SAGRGDWD", "non-specific binding call": "no binding"}
